Reference source: ChEMBL document CHEMBL1201862

In this section, each of the compounds is paired with its reported GI50.
# Test system: OVCAR-3
# PROTOCOL_DESCRIPTION: NCI tumour cell line growth inhibition, 48 h
Calls of active or inactive are those of the source. No stated cut-off is given here; in the data, active = GI50 up to about 1.1 µM and inactive = higher.

O=C1NC(=O)/C(=C/c2ccc(S(=O)(=O)N/N=C/c3ccccc3)cc2)N1	> 100 µM (inactive)
NCCc1nc(-c2nc(C(=O)O)cs2)cs1	> 100 µM (inactive)
CC(=O)c1cc(I)c(O)c2ncccc12	3.21 µM (inactive)
[N-]=[N+]=NCc1nc(N)c2c3c(sc2n1)CCCC3	2.75 µM (inactive)
COc1nc2ncc([C@@H](O)[C@H](O)CO)nc2c(=O)[nH]1	> 100 µM (inactive)

Specify reported GI50 for the compound shown: CCc1ccccc1NC(=O)C(=O)C(C(=O)c1ccc(OC)cc1)c1ccc(OC)cc1 (stereo not drawn)
> 100 µM (inactive)

Give GI50 for the following compound: CC(=O)OC(C)(C)C[N+](=O)[O-]
> 100 µM (inactive)

Please report GI50 for the following compound: COC(=O)C1=C(C(=O)OC)C(Cc2ccccc2)(OO)OC1=O (stereo not drawn)
4.33 µM (inactive)
